- TEST_SUMMARY: Volume of distribution in Sprague-Dawley rat at 2.4 mg/kg, iv
- Assay type: ADME, organism-based
- Parameters: dose 2.4 mg/kg, route intravenous
- TEST_CONTEXT: in vivo, read-out: Vdss
MEASURED_ENDPOINT: Vd

Name the recorded Vd of the compound listed here: CCn1c(-c2nonc2N)nc2cnc(Oc3cccc(NC(=O)c4ccc(OCCN(C)C)cc4)c3)cc21
8.9 L/kg

###

- TEST_SUMMARY: Volume of distribution in Sprague-Dawley rat at 1.6 mg/kg, iv
- Assay type: ADME, organism-based
- Set-up: dose 1.6 mg/kg, route intravenous
- TEST_CONTEXT: in vivo, read-out: Vdss
MEASURED_ENDPOINT: Vd (L/kg)
State the answer as a number, implicitly in L/kg.

Note Vd for the compound shown: CCn1c(-c2nonc2N)nc2cnc(Oc3cccc(NC(=O)c4ccc(OCCN5CCOCC5)cc4)c3)cc21 [GSK-269962A]
1.3

// provenance: ChEMBL document CHEMBL1139215
